Test system: Vero E6 infected with SARS-CoV-2
Experiment: inhibition of SARS-CoV-2 cytopathic effect; higher = more antiviral protection, active = above 15
Conditions: 1 nM; 48 h
Assign inhibition of SARS-CoV-2 cytopathic effect to each entry below.
Field format: number, assumed %, no unit text.

Lookup result for `CCCCOc1ccc(C(=O)Nc2ccc(F)cc2F)cc1` ; measured inhibition of SARS-CoV-2 cytopathic effect: -1.89

Sample `O[C@H]1CC[C@H](Nc2ncc3nc(Nc4c(F)cc(F)cc4F)n([C@H]4CCOC4)c3n2)CC1` ; inhibition of SARS-CoV-2 cytopathic effect observed: 1.66

The recorded inhibition of SARS-CoV-2 cytopathic effect for `CCCCNNC(=O)c1ccc(Br)cc1` is 2.76

The molecule listed as `O=C1O[C@H](CO)[C@@H](O)[C@H](O)[C@H]1O` shows inhibition of SARS-CoV-2 cytopathic effect equal to -1.05

Looking up `O=c1[nH]nc2c3c(cccc13)N=C(CN1Cc3ccccc3C1)N2` , I found its inhibition of SARS-CoV-2 cytopathic effect recorded as 0.7

The molecule identified as `Nc1ccc(S(=O)(=O)Nc2ccccn2)cc1` registered its inhibition of SARS-CoV-2 cytopathic effect at -1.16

Looking up `CS(=O)(=O)c1ccc(-c2cc(Br)sc2-c2ccc(F)cc2)cc1` , I see its inhibition of SARS-CoV-2 cytopathic effect listed as 3.29

Looking up `COc1ccc(-c2oc3c(CC=C(C)C)c(O[C@@H]4O[C@H](CO)[C@@H](O)[C@H](O)[C@H]4O)cc(O)c3c(=O)c2O[C@@H]2O[C@@H](C)[C@H](O)[C@@H](O)[C@H]2O)cc1` , I found its inhibition of SARS-CoV-2 cytopathic effect recorded as 4.38

Measured inhibition of SARS-CoV-2 cytopathic effect, CC(=O)Nc1ccc(OC(C)=O)cc1 [diacetamate] : -0.51

Reported inhibition of SARS-CoV-2 cytopathic effect for `Cc1nc2c(c(=O)[nH]1)CSCC2` was 1.12

In plain terms, `CC(=O)Nc1cccc(Nc2ncnc(N3CCC(OCc4ccc(OC(F)(F)F)cc4)CC3)n2)c1C` has a documented inhibition of SARS-CoV-2 cytopathic effect of 0.94

// recorded inhibition of SARS-CoV-2 cytopathic effect for `CCN1CCN(C(=O)N[C@@H](C(=O)N[C@@H]2C(=O)N3[C@@H]2SC(C)(C)[C@@H]3C(=O)O)c2ccccc2)C(=O)C1=O` : -0.76

Sample `N[C@@H](Cc1cc(CP(=O)(O)O)cc(-c2ccccc2Cl)c1)C(=O)O` ; inhibition of SARS-CoV-2 cytopathic effect observed: 8.76

The molecule listed as `CC1=C(C(=O)O)N2C(=O)[C@@H](NC(=O)[C@H](N)C3=CCC=CC3)[C@H]2SC1` has a reported inhibition of SARS-CoV-2 cytopathic effect of 0.46

Please fill in: inhibition of SARS-CoV-2 cytopathic effect reported for `CCN(CC)CCCCNc1ncc2cc(-c3c(Cl)cccc3Cl)c(NC(=O)NC(C)(C)C)nc2n1` = -1.36

inhibition of SARS-CoV-2 cytopathic effect in this record for `O=c1[nH]c(=O)n([C@H]2C[C@H](O)[C@@H](CO)O2)cc1/C=C/Br` : 1.67

The value of inhibition of SARS-CoV-2 cytopathic effect measured for the molecule `Nc1c(Br)cc(Br)cc1CN[C@H]1CC[C@H](O)CC1` turned out to be -4.07

The reported inhibition of SARS-CoV-2 cytopathic effect of the molecule `CCC(=O)NC[C@H](Cc1ccc(OCCc2nc(-c3ccccc3)oc2C)cc1)N/C(C)=C\C(=O)c1ccc(C(F)(F)F)cc1` was -1.03
